tested target: T1, LAG3 Protein, Human, Recombinant (His Tag) (Sino Biological Catalog No. 16498-H08H) (human, UniProt P18627 23-450)
T1 construct: Bought protein; also called hLAG3-His; LAG3-His; not shown: His tag
T1 sequence (looked up): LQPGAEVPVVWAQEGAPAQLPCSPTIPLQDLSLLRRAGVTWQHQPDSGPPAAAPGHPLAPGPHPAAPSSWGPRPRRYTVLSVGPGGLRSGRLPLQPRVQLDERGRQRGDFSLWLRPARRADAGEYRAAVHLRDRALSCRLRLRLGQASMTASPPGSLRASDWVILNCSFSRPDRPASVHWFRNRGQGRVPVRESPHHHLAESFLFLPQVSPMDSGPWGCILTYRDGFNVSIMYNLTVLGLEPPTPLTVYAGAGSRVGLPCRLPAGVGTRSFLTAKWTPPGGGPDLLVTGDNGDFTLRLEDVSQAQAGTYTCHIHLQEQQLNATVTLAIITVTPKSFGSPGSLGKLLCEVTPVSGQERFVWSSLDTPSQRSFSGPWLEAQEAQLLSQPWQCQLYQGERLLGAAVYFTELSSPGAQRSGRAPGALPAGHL
experimental protocol: SPR binning on LAG3-His; competitor 1
property: RU (RU)
Lab book: enter the figure in RU, no units written.

{"columns": ["binder", "RU (RU)"],
 "data": [
  ["sdAb No. 24 (VHH, Fc of the tested form not described; also called sdAb 24; not shown: Fc part implied by anti-human Fc capture) VHH: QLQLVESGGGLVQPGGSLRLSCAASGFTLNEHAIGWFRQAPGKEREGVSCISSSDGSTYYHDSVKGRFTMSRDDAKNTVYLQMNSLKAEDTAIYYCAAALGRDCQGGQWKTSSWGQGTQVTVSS", -8.8],
  ["sdAb No. 18 (VHH, Fc of the tested form not described; also called sdAb 18; not shown: Fc part implied by anti-human Fc capture) VHH: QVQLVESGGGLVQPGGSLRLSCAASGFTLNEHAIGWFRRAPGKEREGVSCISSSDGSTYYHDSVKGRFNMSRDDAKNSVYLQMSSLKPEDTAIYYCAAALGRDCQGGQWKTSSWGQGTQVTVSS", -9.5],
  ["sdAb No. 73 (VHH, Fc not described; also called sdAb 73; not shown: Fc part implied by anti-human Fc capture) VHH: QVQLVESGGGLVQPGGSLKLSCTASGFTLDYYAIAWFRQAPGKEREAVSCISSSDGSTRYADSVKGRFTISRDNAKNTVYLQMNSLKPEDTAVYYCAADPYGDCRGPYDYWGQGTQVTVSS", -7.3]
]}

RU for sdAb No. 27 (VHH, Fc of the tested form not described; also called sdAb 27; not shown: Fc part implied by anti-human Fc capture and anti-human IgG Fc detection) VHH: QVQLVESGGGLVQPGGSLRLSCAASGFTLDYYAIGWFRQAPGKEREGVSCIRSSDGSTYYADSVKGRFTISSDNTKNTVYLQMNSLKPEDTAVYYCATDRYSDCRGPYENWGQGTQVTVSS is -9.1

RU for sdAb No. 1 (VHH, the tested form was captured by anti-human Fc, its Fc is not described; also called sdAb 1; not shown: Fc part implied by anti-human Fc capture) VHH: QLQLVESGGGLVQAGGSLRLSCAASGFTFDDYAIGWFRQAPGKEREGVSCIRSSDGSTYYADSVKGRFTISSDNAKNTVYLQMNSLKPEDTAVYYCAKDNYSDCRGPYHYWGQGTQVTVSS is 22

Data provenance: patent US20230303690A1
